Data provenance: patent US20250313563A1

- TEST_TARGET: GSK3b (GST-full length GSK3b) (Homo sapiens (Human))
- Sequence (P49841 whole entry): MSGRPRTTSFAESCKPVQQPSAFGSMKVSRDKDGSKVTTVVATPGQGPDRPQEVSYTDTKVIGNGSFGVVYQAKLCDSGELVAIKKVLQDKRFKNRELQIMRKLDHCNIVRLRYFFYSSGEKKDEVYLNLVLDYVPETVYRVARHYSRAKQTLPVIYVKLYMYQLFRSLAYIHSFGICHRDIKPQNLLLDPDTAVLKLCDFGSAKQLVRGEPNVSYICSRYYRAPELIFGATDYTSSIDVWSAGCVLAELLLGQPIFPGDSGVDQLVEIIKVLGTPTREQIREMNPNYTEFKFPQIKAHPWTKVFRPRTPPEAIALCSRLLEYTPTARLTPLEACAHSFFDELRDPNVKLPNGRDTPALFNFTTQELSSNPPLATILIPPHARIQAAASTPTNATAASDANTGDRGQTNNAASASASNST
- ASSAY_PROTOCOL: GSK3b TR-FRET kinase assay
- Assay type: biochemical
- CONDITION_DETAILS: read-out: GSK3-B (TR-FRET 1 mM ATP); GMean; IC50; 1 mM ATP; geometric mean
pIC50: −log10 of the molar value.
Quick reference: pIC50 of the listed items.

The following molecules have reported results that may help.
molecule="CCC1(c2ccccc2)C2=C(CC(C)(C)CC2=O)Nc2n[nH]c(C(F)F)c21 (stereo not drawn) [Compound 874510]" test_target="GSK3b (GST-full length GSK3b) (Homo sapiens (Human))" result="6.00 to 7.00"
molecule="CCC1(c2cccc(-c3cnn(C)c3C)c2)C2=C(CC(C)(C)CC2=O)Nc2n[nH]c(C)c21 (stereo not drawn) [Compound 913045]" test_target="GSK3b (GST-full length GSK3b) (Homo sapiens (Human))" result="6.00 to 7.00"
molecule="CCC1(c2cccc(-c3ccnc(C)c3)c2)C2=C(CC(C)(C)NC2=O)Nc2n[nH]c(C(F)F)c21 (stereo not drawn) [Compound 949169]" test_target="GSK3b (GST-full length GSK3b) (Homo sapiens (Human))" result="5.30 to 6.00"

Inquiry: Find the measured pIC50 of CCC1(c2cccc(Br)c2)C2=C(CC(C)(C)CC2=O)Nc2n[nH]cc21 (stereo not drawn) [Compound 790733] and report it.
Reply text: 5.30 to 6.00

Inquiry: Find the measured pIC50 of CC(C)(C)Cc1[nH]nc2c1C1(CN(C(=O)OCc3ccccc3)C1)C1=C(CC(C)(C)CC1=O)N2 [Compound 90330] and report it.
Reply text: < 5.30

Inquiry: Find the measured pIC50 of CCC1(c2cccc(Cl)c2)C2=C(CC(C)(C)CC2=O)Nc2n[nH]c(Br)c21 (stereo not drawn) [Compound 801314] and report it.
Reply text: 6.00 to 7.00

Inquiry: Find the measured pIC50 of CC[C@@]1(c2cccc(-c3cc(C)ncc3F)c2)C2=C(CC(C)(C)NC2=O)Nc2n[nH]c(C(F)(F)F)c21 [Compound 949650] and report it.
Reply text: 5.30 to 6.00

Inquiry: Find the measured pIC50 of CCC1(c2cccc(OC(C)C)c2)C2=C(CC(C)(C)CC2=O)Nc2[nH]nc(C(F)(F)F)c21 (stereo not drawn) [Compound 947867] and report it.
Reply text: ≥ 7.00

Inquiry: Find the measured pIC50 of CC[C@@]1(c2cccc(C(F)(F)F)c2)C2=C(CC3(CCC3)NC2=O)Nc2n[nH]cc21 [Compound 914308] and report it.
Reply text: 5.30 to 6.00
